Target: Cytochrome P450 2C19 (Homo sapiens) (UniProt P33261)
Sequence (P33261 whole entry, looked up): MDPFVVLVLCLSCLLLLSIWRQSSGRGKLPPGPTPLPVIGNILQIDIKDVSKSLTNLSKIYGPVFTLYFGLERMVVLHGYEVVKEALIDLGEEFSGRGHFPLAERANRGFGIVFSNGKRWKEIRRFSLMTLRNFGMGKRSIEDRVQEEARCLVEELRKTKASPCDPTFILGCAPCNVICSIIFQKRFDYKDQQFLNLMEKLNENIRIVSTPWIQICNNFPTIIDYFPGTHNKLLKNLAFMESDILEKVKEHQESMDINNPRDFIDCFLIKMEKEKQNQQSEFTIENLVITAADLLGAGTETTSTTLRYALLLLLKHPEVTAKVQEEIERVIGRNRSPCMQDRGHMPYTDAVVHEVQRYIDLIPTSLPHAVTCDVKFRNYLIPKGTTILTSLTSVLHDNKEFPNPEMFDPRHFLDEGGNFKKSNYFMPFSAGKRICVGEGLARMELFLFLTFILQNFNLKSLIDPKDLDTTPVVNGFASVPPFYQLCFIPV
Assay: Cytochrome panel assay with activity outcomes
Details: recombinant CYP, pro-luciferin dealkylation, luminescence, p450-cyp2c19; series mostly up to 57.1 µM
About 5,800 (36%) of roughly 16,000 compounds were called active. Not shown: some 23% with an inconclusive outcome. Calls follow the shape of the dose curve; as a rule, active = well fitted curve in the direction sought with a large enough effect; inconclusive = small, poorly fitted or top-dose-only effect, or effect the other way; inactive = no such curve, though single readings can be large or run the other way. The list shows a part of the results.
Bench note: report the call from YES for active, NO for inactive

Observe how each entry below is paired with its result.
compound: O=C(Nc1cccc(-c2nc3ccccc3s2)c1)c1ccc2c(c1)OCO2
labelClass: YES

compound: CCOCC(=O)Nc1c(C(=O)Nc2ccccc2OC)oc2ccccc12
labelClass: NO

compound: O=C(NCc1ccc(F)cc1)C(c1ccncc1)N(C(=O)c1csnn1)C1CC1 (centres undefined)
labelClass: YES

Please find the next compound below.
Q: How did this test come out for "COc1cccc(NC(=O)c2oc3ccccc3c2NC(=O)c2ccc3c(c2)OCO3)c1" ?
Result: YES
